Values from patent US20180000085A1

System: Alternaria solani
MEASUREMENT_PROTOCOL: Tomato early blight (ALTESO) disease control
Assay type: in vivo
CONDITION_DETAILS: 100 ppm, 1 Day Protectant
OBSERVABLE: ALTESO disease control, 1DP

Sample answers from the record:
COMPOUND | RESULT
COc1ccnc(C(=O)N[C@H](C)C(=O)O[C@@H](C)[C@H](Oc2ccccc2)C(C)C)c1OCOC(C)=O [Cmpd 558] | B (≤ 80)
COc1ccnc(C(=O)N[C@@H](C)C(=O)O[C@H](C)[C@@H](Oc2ccccc2)c2ccccc2)c1OCOC(C)=O [Cmpd 547] | B (≤ 80)
COc1ccnc(C(=O)N[C@H](C)C(=O)O[C@H](C)[C@H](Oc2ccccc2)C(C)C)c1OCOC(C)=O [Cmpd 560] | B (≤ 80)
CCC(C)C(Oc1ccccc1)C(C)OC(=O)C(C)NC(=O)c1nccc(OC)c1OCOC(C)=O (centres unmarked) [Cmpd 692] | B (≤ 80)

Lab note: each compound below needs its ALTESO disease control, 1DP filled in.
1. COc1ccnc(C(=O)N[C@H](C)C(=O)O[C@@H](C)[C@@H](Oc2ccccc2)C(C)C)c1OCOC(C)=O [Cmpd 559]
2. CCCOC(CC)C(Oc1ccccc1)C(C)OC(=O)C(C)NC(=O)c1nccc(OC)c1OCOC(C)=O (centres unmarked) [Cmpd 446]
3. COc1ccnc(C(=O)N[C@@H](C)C(=O)O[C@@H](C)[C@H](Oc2cccc(Cl)c2)c2ccccc2)c1OCOC(C)=O [Cmpd 637]

[reply]
1. B (≤ 80)
2. D
3. D

====

Tested on: Puccinia triticina
MEASUREMENT_PROTOCOL: Wheat brown rust (PUCCRT) disease control on wheat seedlings
Assay type: in vivo
CONDITION_DETAILS: high volume application, 100 ppm, 1 day protectant
Protocol: All fungicides were evaluated using the aforementioned method for their activity vs. all target diseases, unless stated otherwise. Wheat leaf blotch and brown rust activity were also evaluated using track spray applications, in which case the fungicides were formulated as EC formulations, containing 0.1% Trycol 5941 in the spray solutions. […] Percent disease control was calculated using the ratio of disease severity on treated plants relative to untreated plants. […]
OBSERVABLE: PUCCRT 1DP disease control rating, HV activity at 100 ppm

COMPOUND | RESULT
COc1ccnc(C(=O)NC(C)C(=O)OC(C)C(Oc2ccccc2)c2nccs2)c1O (mixture of isomers) | A (> 80)
COc1ccnc(C(=O)N[C@@H](CC(C)C)C(=O)O[C@@H](C)[C@H](Oc2ccccc2)C(C)C)c1O | B (≤ 80)
C=CC[C@@H](OCC(=C)C)[C@H](C)OC(=O)[C@H](C)NC(=O)c1nccc(OC)c1O | A (> 80)
COc1cc(O[C@@H]([C@H](C)OC(=O)[C@H](C)NC(=O)c2nccc(OC)c2O)C(C)(C)C)ccc1Cl | A (> 80)

Lab note: each compound below needs its PUCCRT 1DP disease control rating, HV activity at 100 ppm filled in.
1. COc1ccnc(C(=O)NC(C)C(=O)OC(C)(C)[C@H](Oc2ccccc2)C(C)C)c1O (stereo partly shown)
2. COc1ccnc(C(=O)NC(C)C(=O)OC(C)C(Oc2ccccc2)c2ccccc2)c1O (stereo not shown)
3. COc1cc(O[C@H](C2CC2)[C@H](C)OC(=O)[C@H](C)NC(=O)c2nccc(OC)c2O)ccc1Cl

[reply]
["A (> 80)", "A (> 80)", "A (> 80)"]

Lab note: each compound below needs its PUCCRT 1DP disease control rating, HV activity at 100 ppm filled in.
1. C=CC[C@@H](OCC1CC1)[C@H](C)OC(=O)[C@H](C)NC(=O)c1nccc(OC)c1O
2. CCC[C@@H](Oc1ccc(C)cc1)[C@H](C)OC(=O)[C@H](C)NC(=O)c1nccc(OC)c1O
3. COc1ccnc(C(=O)NC(C)C(=O)OC(C)C(OCC(C)C)c2ccccc2)c1O (stereo not shown) [Cmpd 819]
4. COc1ccnc(C(=O)N[C@@H](C)C(=O)O[C@@H](C)[C@H](Oc2ccc(C)cc2Cl)C2CC2)c1O
5. COc1ccnc(C(=O)NCC(=O)O[C@@H](C)[C@H](Oc2ccccc2)C(C)C)c1O
6. CCC[C@@H](Oc1ccc(Cl)c(OC)c1)[C@H](C)OC(=O)[C@H](C)NC(=O)c1nccc(OC)c1O

[reply]
1. B (≤ 80)
2. A (> 80)
3. D
4. A (> 80)
5. A (> 80)
6. B (≤ 80)

====

Tested on: Zymoseptoria tritici
MEASUREMENT_PROTOCOL: Leaf blotch of wheat (SEPTTR) disease control on wheat seedlings
Type: in vivo
CONDITION_DETAILS: HV application at 100 ppm; 1 Day Protectant; wheat leaf blotch
OBSERVABLE: SEPTTR 1DP disease control rating, HV activity

Sample answers from the record:
COMPOUND | RESULT
CC[C@@H](Cc1ccccc1)[C@H](Oc1ccccc1)[C@H](C)OC(=O)[C@H](C)NC(=O)c1nccc(OC)c1O [Cmpd 313] | A (> 80)
COc1ccnc(C(=O)N[C@@H](C)C(=O)O[C@@H](C)[C@@H](Cc2ccccc2)OC)c1O [Cmpd 342] | D
COc1ccnc(C(=O)N[C@@H](C)C(=O)O[C@@H](C)[C@@H](Oc2ccccc2)C(C)C)c1O [Cmpd 347] | B (≤ 80)
COc1ccnc(C(=O)NC(C)C(=O)OC(C)C(Oc2ccc(-c3ccccc3)cc2)C(C)C)c1O (stereo not drawn) [Cmpd 388] | A (> 80)
CCCOC(CC)C(Oc1ccccc1)C(C)OC(=O)C1(NC(=O)c2nccc(OC)c2O)CC1 (stereo not drawn) [Cmpd 416] | B (≤ 80)

Lab note: each compound below needs its SEPTTR 1DP disease control rating, HV activity filled in.
1. CCC(CC)[C@@H](Oc1ccc(-c2ccccc2)cc1)[C@H](C)OC(=O)[C@@H](NC(=O)c1nccc(OC)c1O)C(C)C [Cmpd 414]
2. CCC(CC)C(Oc1cccc(-c2ccccc2)c1)C(C)OC(=O)C(C)NC(=O)c1nccc(OC)c1O (stereo not drawn) [Cmpd 386]
3. COc1ccnc(C(=O)N[C@@H](C)C(=O)O[C@@H](C)[C@H](Oc2ccccc2)C(C)C)c1O [Cmpd 304]

[reply]
A (> 80)
D
A (> 80)

====

Tested on: Puccinia triticina
MEASUREMENT_PROTOCOL: Wheat brown rust (PUCCRT) disease control on wheat seedlings
Type: in vivo
CONDITION_DETAILS: low volume application, 125.1 g/H, 3 Day Curative
OBSERVABLE: PUCCRT 3DC, LV activity at 125.1 g/H (% Control rating)

Sample answers from the record:
COMPOUND | TARGET_DESC | RESULT
COc1ccnc(C(=O)N[C@@H](C)C(=O)O[C@@H](C)[C@H](Oc2ccccc2)c2ccccc2)c1OCOC(C)=O | Puccinia triticina | A (> 80)
COc1ccnc(C(=O)NC(C)C(=O)OC(C)COc2ccccc2)c1OCOC(C)=O (centres unmarked) | Puccinia triticina | B (≤ 80)
COc1ccnc(C(=O)N[C@@H](C)C(=O)O[C@@H](C)[C@H](Oc2ccc(Cl)cc2Cl)C(C)C)c1OC(C)=O | Puccinia triticina | A (> 80)
CCC(CC)[C@@H](Oc1ccccc1)[C@H](C)OC(=O)[C@H](C)NC(=O)c1nccc(OC)c1OC(C)=O | Puccinia triticina | A (> 80)
CCC(CC)[C@@H](Oc1ccc(-c2ccccc2)cc1)[C@H](C)OC(=O)[C@@H](NC(=O)c1nccc(OC)c1OCOC(C)=O)C(C)C | Puccinia triticina | B (≤ 80)
CC[C@H](NC(=O)c1nccc(OC)c1OC(C)=O)C(=O)O[C@@H](C)[C@@H](COc1ccccc1)Oc1ccccc1 | Puccinia triticina | A (> 80)
COc1ccnc(C(=O)N[C@@H](C)C(=O)O[C@@H](C)[C@@H](COc2ccccc2)Oc2ccccc2)c1OC(C)=O | Puccinia triticina | A (> 80)

The reported PUCCRT 3DC, LV activity at 125.1 g/H (% Control rating) value, Puccinia triticina, for COc1ccnc(C(=O)NC(C)C(=O)OC(C)COCC2CC2)c1OC(C)=O (centres unmarked) reads D

====

Tested on: Zymoseptoria tritici
MEASUREMENT_PROTOCOL: Leaf blotch of wheat (SEPTTR) disease control on wheat seedlings
Type: in vivo
CONDITION_DETAILS: HV application at 100 ppm; 3 Day Curative; wheat leaf blotch
OBSERVABLE: SEPTTR 3DC disease control rating, HV activity

Sample answers from the record:
COMPOUND | RESULT
CCC(CC)C(Oc1cc(F)ccc1F)C(C)OC(=O)C(C)NC(=O)c1nccc(OC)c1O (stereo not drawn) [Cmpd 422] | B (≤ 80)
C=CCC(Oc1ccccc1)C(C)OC(=O)C(C)NC(=O)c1nccc(OC)c1O (stereo not drawn) | A (> 80)
COc1ccnc(C(=O)NC(C)C(=O)OC(C)C(Oc2cccc3ccccc23)C(C)C)c1O (stereo not drawn) [Cmpd 434] | D
COc1ccnc(C(=O)N[C@@H](C)C(=O)O[C@@H](C)[C@H](Oc2ccc(Cl)cc2)C(C)C)c1O | A (> 80)

Lab note: each compound below needs its SEPTTR 3DC disease control rating, HV activity filled in.
1. CCCOC(CC)C(Oc1ccccc1)C(C)OC(=O)C(CC(C)C)NC(=O)c1nccc(OC)c1OC(C)=O (stereo not drawn)
2. CCC(Cc1ccccc1)C(OCC(C)C)C(C)OC(=O)C(C)NC(=O)c1nccc(OC)c1OCOC(C)=O (stereo not drawn)
3. CCCC(NC(=O)c1nccc(OC)c1OCOC(C)=O)C(=O)OC(C)C(CCc1ccccc1)OCC(C)C (stereo not drawn)
4. COc1ccnc(C(=O)N[C@@H](C)C(=O)O[C@@H](C)COC2CCCC2)c1O
5. COc1ccnc(C(=O)NC(C)C(=O)OC(C)C(Oc2cc(F)cc(Cl)c2)C(C)C)c1O (stereo not drawn)

[reply]
["B (≤ 80)", "A (> 80)", "A (> 80)", "D", "A (> 80)"]
